- Target: T1, human IL-11 (human, UniProt P20809 22-199)
- T1 construct: bought from Invigate; also called hIL-11; hIL11
- T1 sequence: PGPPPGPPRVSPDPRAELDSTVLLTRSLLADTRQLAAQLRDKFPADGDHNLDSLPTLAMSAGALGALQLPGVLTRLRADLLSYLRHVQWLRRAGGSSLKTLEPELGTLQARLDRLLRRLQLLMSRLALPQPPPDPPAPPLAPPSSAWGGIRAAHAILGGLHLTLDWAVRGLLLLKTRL
- Experimental details: SPR, antibody captured, IL-11 as analyte
- Method: Antibodies were captured via anti-mouse Fc IgGs (“Mouse antibody capture kit, Order No. BR100383, Cytiva) covalently amine coupled to a Series S CM5 sensor chip (Cytiva). The amine coupling was carried out according to the manufacturer's instructions using 1-ethyl-3-(3-dimethylaminopropyl) carbodiimide hydrochloride (EDC), N-hydroxysuccinimide (NHS) and ethanolamine HCl, pH 8.5 (“Amine Coupling Kit” BR-1000-50, Cytiva.). […]
Readout kind: Kd (nM)
Field format: number, assumed nM, no unit text.

Some entries whose results are on file:
| Binder | Kd, nM |
| --- | --- |
| TPP-26333 (antibody, V domains shown, constant regions not restated) VH: EVQLLESGGGLVQPGGSLRLSCAASGFTFSSYGFHWVRQAPGKGLEWVSVISYDGSYKYYADSVKGRFTISRDNSKNTLYLQMNSLRAEDTAVYYCAAGVPDYWGQGTLVTVSS VL: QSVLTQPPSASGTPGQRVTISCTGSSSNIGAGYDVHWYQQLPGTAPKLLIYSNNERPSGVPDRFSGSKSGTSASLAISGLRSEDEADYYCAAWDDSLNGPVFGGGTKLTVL | 11 |
| TPP-26321 (antibody, V domains shown, constant regions not restated) VH: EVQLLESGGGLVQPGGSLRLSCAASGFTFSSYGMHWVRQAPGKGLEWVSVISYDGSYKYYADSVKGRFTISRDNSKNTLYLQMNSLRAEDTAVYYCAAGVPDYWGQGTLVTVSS VL: QSVLTQPPSASGTPGQRVTISCTGSSSNIGAGYDVHWYQQLPGTAPKLLIYSNNERPSGVPDRFSGSKSGTSASLAISGLRSEDEADYYCAAWDLSLNGPVFGGGTKLTVL | 9.3 |

Requested read-out: Kd. Entry: TPP-26325 (antibody, V domains shown, constant regions not restated) VH: EVQLLESGGGLVQPGGSLRLSCAASGFTFSWYGMHWVRQAPGKGLEWVSVISYDGSYKYYADSVKGRFTISRDNSKNTLYLQMNSLRAEDTAVYYCAAGVPDYWGQGTLVTVSS VL: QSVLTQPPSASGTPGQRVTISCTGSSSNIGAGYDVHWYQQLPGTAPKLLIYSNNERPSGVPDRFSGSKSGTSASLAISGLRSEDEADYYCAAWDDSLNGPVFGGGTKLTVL 6.4

Requested read-out: Kd. Entry: TPP-26313 (antibody, V domains shown, constant regions not restated) VH: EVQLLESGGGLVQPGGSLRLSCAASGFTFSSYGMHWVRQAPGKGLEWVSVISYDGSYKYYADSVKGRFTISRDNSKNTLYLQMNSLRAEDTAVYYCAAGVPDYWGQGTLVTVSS VL: QSVLTQPPSASGTPGQRVTISCTGSSSNIGAYYDVHWYQQLPGTAPKLLIYSNNERPSGVPDRFSGSKSGTSASLAISGLRSEDEADYYCAAWDDSLNGPVFGGGTKLTVL 9.1

Data credit: patent US20240317847A1
